SYSTEM: Rhesus PDE2A3 (Macaca mulatta, UniProt B3VTJ2)
Sequence (B3VTJ2 1-941): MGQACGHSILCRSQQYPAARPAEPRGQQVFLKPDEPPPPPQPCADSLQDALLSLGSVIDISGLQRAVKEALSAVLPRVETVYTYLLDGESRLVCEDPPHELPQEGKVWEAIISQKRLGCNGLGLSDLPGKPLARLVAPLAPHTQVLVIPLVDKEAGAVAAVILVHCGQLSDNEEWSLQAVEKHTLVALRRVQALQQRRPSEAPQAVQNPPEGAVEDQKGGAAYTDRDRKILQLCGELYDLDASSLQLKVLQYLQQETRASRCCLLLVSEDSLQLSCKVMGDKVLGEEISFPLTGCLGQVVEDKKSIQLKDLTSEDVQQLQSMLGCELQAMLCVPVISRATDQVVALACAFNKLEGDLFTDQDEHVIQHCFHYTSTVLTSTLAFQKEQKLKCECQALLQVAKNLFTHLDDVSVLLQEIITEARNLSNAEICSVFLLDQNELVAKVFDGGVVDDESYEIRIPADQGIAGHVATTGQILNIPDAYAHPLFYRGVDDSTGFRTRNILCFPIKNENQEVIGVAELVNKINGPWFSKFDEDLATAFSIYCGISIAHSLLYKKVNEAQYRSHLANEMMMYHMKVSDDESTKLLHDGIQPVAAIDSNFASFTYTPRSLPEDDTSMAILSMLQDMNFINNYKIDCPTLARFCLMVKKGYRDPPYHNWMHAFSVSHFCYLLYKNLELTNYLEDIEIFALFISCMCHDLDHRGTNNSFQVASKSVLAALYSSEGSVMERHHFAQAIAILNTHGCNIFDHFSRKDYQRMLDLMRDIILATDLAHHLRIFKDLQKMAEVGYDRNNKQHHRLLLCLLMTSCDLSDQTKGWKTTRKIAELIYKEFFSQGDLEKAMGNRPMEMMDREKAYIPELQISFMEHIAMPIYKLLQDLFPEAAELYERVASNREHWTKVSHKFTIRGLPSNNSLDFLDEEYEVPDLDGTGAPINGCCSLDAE
ASSAY_EXPLANATION: PDE2 fluorescence polarization (IMAP FP) inhibition assay, rhesus PDE2A3
Format: biochemical, rhesus macaque
REPORTED_CONDITIONS: Lab B; read-out: Rhesus PDE2 Ki (nM) - Lab B
READOUT_KIND: Ki (nM)
Only the number, expressed in nM, is required.

Worked cases, Ki given:
# COMPOUND, Ki (nM)
data = [
    ("CC[C@@H](NC(=O)c1cc(=O)[nH]c(N(C)C)n1)c1ccc(S(F)(F)(F)(F)F)cc1 [Example 5]", 1.5),
    ("CN(C)c1nc(C(=O)N[C@@H](c2ccc(OC(F)F)c(F)c2)C(C)(C)C)cc(=O)[nH]1 [Example 54]", 0.32),
    ("CN(C)c1nc(C(=O)NC(c2ccc(SC(F)(F)F)c(F)c2)C2(C)CC2)cc(=O)[nH]1 (single isomer, unassigned) [Example 120]", 1.8),
    ("CN(C)c1nc(C(=O)N[C@@H](c2ccc(OC(F)F)cc2)C2CC2)cc(=O)[nH]1 [Example 32]", 6.4),
    ("CN(C)c1nc(C(=O)N[C@@H](c2ccc(OC(F)(F)F)c(Cl)c2)C2CC2)cc(=O)[nH]1 [Example 85]", 4.9),
]

Recall the reported Ki of CN(C)c1nc(C(=O)NC(c2ccc(S(F)(F)(F)(F)F)cc2F)C(C)(C)C)cc(=O)[nH]1 (single isomer, unassigned) [Example 128] when tested on Rhesus PDE2A3 (Macaca mulatta, UniProt B3VTJ2).
0.22

Lab note: Rhesus PDE2A3 (Macaca mulatta, UniProt B3VTJ2) assay, enter Ki for C[C@@H](NC(=O)c1cc(=O)[nH]c(N(C)C)n1)c1ccc(C(F)(F)F)cc1 [Example 133] here
2.8

Please report the measured Ki for CC(C)[C@@H](NC(=O)c1cc(=O)[nH]c(N2CC[C@H](F)C2)n1)c1ccc(C(F)(F)F)c(F)c1 [Example 168] tested on Rhesus PDE2A3 (Macaca mulatta, UniProt B3VTJ2).
0.5

Report value: Ki, system: Rhesus PDE2A3 (Macaca mulatta, UniProt B3VTJ2), compound: CN(C)c1nc(C(=O)NC2(c3ccc(S(F)(F)(F)(F)F)cc3)CC2)cc(=O)[nH]1 [Example 45]
2.1

# return Ki of CN(C)c1nc(C(=O)N[C@@H](c2ccc(C(F)F)cc2F)C(C)(C)C)cc(=O)[nH]1 [Example 73] (system: Rhesus PDE2A3 (Macaca mulatta, UniProt B3VTJ2))
0.26

Fill: Ki (Rhesus PDE2A3 (Macaca mulatta, UniProt B3VTJ2)) for this compound CC(C)[C@@H](NC(=O)c1cc(=O)[nH]c(N(C)C)n1)c1ccc(SC(F)(F)F)c(F)c1 [Example 150]
0.29

###

Collected efflux ratio at 1 μM values appear next to each entry.
SYSTEM: P-glycoprotein (P-gp, rat Mdr1a) (Rattus norvegicus, UniProt Q6PSM0)
Sequence (Q6PSM0 1-1272): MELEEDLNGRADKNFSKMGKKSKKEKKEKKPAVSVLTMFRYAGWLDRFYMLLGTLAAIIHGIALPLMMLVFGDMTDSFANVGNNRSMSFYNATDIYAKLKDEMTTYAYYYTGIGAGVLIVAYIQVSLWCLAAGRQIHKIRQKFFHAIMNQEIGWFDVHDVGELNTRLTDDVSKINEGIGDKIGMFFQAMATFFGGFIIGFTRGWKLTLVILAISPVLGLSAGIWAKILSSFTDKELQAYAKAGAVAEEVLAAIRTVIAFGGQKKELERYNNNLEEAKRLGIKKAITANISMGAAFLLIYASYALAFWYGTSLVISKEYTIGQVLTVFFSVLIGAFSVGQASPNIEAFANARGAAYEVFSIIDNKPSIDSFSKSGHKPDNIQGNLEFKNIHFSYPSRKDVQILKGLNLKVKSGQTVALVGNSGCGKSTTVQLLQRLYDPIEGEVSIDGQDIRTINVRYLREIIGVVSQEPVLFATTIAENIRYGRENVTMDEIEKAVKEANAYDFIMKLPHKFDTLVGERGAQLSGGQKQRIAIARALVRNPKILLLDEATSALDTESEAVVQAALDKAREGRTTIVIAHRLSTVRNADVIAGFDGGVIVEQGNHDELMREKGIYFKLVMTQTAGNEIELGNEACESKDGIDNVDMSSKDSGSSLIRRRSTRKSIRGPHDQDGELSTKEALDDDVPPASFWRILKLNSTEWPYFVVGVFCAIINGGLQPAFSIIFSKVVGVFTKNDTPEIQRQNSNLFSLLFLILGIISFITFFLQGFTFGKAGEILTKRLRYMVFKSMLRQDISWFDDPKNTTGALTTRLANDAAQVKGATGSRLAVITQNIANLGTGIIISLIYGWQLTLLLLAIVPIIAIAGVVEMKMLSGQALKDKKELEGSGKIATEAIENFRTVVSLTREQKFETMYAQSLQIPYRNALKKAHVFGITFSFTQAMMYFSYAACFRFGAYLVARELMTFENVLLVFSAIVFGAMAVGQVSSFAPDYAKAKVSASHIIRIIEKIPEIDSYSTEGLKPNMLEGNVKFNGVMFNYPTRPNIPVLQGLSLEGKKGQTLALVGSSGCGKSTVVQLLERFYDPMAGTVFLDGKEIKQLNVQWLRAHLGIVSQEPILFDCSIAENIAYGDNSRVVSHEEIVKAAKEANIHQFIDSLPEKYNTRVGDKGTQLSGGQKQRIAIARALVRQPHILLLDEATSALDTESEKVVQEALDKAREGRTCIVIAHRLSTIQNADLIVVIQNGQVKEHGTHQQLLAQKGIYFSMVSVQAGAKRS
ASSAY_EXPLANATION: P-gp transport, experimental BA/AB ratio, rat LLC-Mdr1a
Assay type: in vitro ADME
REPORTED_CONDITIONS: LLC-PK1; rat LLC-Mdrla; 1 μM substrate concentration
The answer should be a number; do not append a unit.

Please review the following examples before continuing.
# COMPOUND, efflux ratio at 1 μM
measured = [
    ("CN(C)c1nc(C(=O)NC(c2ccc(SC(F)(F)F)c(F)c2)C2(C)CC2)cc(=O)[nH]1 (single isomer, unassigned)", 47.2),
    ("CN(C)c1nc(C(=O)N[C@@H](c2ccc(S(F)(F)(F)(F)F)cc2)C2CC2)cc(=O)[nH]1", 3.1),
    ("CC(C)[C@@H](NC(=O)c1cc(=O)[nH]c(N(C)C)n1)c1ccc(C(F)F)cc1", 10.2),
]

Pending compound:
Give a short answer stating reported efflux ratio at 1 μM for CCC(C)(NC(=O)c1cc(=O)[nH]c(N(C)C)n1)c1ccc(C(F)(F)F)cc1F (single isomer, unassigned) .
1.3

###

SYSTEM: UniProt:O00408
Sequence (O00408 other isoform, or with tags, fused parts or gaps): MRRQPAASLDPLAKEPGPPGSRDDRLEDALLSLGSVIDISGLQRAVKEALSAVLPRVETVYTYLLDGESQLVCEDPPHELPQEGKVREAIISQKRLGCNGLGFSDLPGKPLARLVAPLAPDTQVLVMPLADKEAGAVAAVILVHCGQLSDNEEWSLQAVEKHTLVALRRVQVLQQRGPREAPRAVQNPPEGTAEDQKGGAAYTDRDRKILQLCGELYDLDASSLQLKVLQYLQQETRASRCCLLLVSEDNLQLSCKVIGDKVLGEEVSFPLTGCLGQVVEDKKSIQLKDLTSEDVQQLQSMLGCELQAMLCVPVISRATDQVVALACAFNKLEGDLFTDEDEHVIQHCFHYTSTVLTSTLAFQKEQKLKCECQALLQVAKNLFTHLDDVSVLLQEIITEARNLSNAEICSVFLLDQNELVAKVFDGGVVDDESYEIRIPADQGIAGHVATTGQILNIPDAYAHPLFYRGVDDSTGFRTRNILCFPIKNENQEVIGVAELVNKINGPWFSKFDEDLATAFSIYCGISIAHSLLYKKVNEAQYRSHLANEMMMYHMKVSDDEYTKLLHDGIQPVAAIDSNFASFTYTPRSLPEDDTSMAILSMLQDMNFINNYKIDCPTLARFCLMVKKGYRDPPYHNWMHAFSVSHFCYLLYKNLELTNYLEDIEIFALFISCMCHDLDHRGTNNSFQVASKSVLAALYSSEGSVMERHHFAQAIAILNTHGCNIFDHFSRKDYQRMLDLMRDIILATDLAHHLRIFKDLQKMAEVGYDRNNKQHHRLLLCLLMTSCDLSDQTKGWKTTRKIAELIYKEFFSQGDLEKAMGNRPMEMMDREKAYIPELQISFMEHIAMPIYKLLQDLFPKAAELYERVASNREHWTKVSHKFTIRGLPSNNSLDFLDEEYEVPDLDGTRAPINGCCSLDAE
ASSAY_EXPLANATION: PDE2 IMAP FP inhibition assay, human PDE2A1 (selectivity panel format)
Type: biochemical
REPORTED_CONDITIONS: Lab B; read-out: Human PDE2 Ki (nM) - Lab B
READOUT_KIND: Ki (nM)
Answer format: numeric, nM implied, no suffix.

# MOLECULE, Ki, nM
measured = [
    ("CN(C)c1nc(C(=O)NC2(c3ccc(S(F)(F)(F)(F)F)cc3)CC2)cc(=O)[nH]1", 1.7),
    ("C[C@H]1C[C@]1(NC(=O)c1cc(=O)[nH]c(N(C)C)n1)c1ccc(C(F)(F)F)cc1 (single isomer, unassigned; enantiomer a) [Example 174]", 2.7),
    ("CN(C)c1nc(C(=O)NC2(c3ccc(C(F)(F)F)cc3F)CC2)cc(=O)[nH]1", 2.7),
    ("COCC1CCN(c2nc(C(=O)N[C@@H](c3ccc(C(F)(F)F)cc3)C(C)(C)C)cc(=O)[nH]2)C1 (stereo partly shown) [Example 14]", 0.34),
    ("C[C@@H](NC(=O)c1cc(=O)[nH]c(N(C)C)n1)c1ccc(C(F)(F)F)c(F)c1F", 2.5),
]

Please give measured Ki of the following entry: COc1cc(C(F)(F)F)ccc1C(C)(C)NC(=O)c1cc(=O)[nH]c(N(C)C)n1
7.7

Look up and report measured Ki for this entry: CC[C@@H](NC(=O)c1cc(=O)[nH]c(N(C)C)n1)c1ccc(C(F)F)c(F)c1
12

###

Reported values of Ki for individual entries
SYSTEM: Rhesus PDE2A3 (Macaca mulatta)
ASSAY_EXPLANATION: PDE2 fluorescence polarization (IMAP FP) inhibition assay, rhesus PDE2A3
Assay type: biochemical, rhesus macaque
REPORTED_CONDITIONS: Lab A; read-out: Rhesus PDE2 Ki (nM) - Lab A
Field: numeric (nM). Do not append units.

Example entries begin here.
# COMPOUND, UNIT_OF_MEASUREMENT, Ki
records = [
    ("COCCOc1nc(C(=O)NC(C)c2ccc(C(F)(F)F)cc2)cc(=O)[nH]1 (centres unmarked)", "nM", 657),
    ("CN(C)c1nc(C(=O)N[C@@H](c2ccc(OC(F)(F)F)c(F)c2)C2CC2)cc(=O)[nH]1", "nM", 0.48),
    ("CC(NC(=O)c1cc(=O)[nH]c(OCC2(C)COC2)n1)c1ccc(C(F)(F)F)cc1 (centres unmarked)", "nM", 12600),
    ("C[C@@H](NC(=O)c1cc(=O)[nH]c(N2CC(F)C2)n1)c1ccc(C(F)(F)F)cc1", "nM", 27),
    ("C[C@@H](NC(=O)c1cc(=O)[nH]c(N(C)C)n1)c1ccc(OC(F)(F)F)c(Cl)c1", "nM", 0.82),
]

# return recorded Ki for input CN(C)c1nc(C(=O)NC2(c3ccc(C(F)(F)F)c(F)c3)CC2)cc(=O)[nH]1
1.2

Give Ki for CC(C)[C@@H](NC(=O)c1cc(=O)[nH]c(N2CCC2)n1)c1ccc(SC(F)(F)F)cc1
0.42

Name the recorded Ki of the compound listed here: CCN(C)c1nc(C(=O)N[C@H](C)c2ccc(C(F)(F)F)cc2)cc(=O)[nH]1
10.3

###

Below, each entry is listed alongside its reported Ki.
SYSTEM: Rhesus PDE2A3 (Macaca mulatta)
ASSAY_EXPLANATION: PDE2 fluorescence polarization (IMAP FP) inhibition assay, rhesus PDE2A3
Type: biochemical, rhesus macaque
REPORTED_CONDITIONS: Lab A; read-out: Rhesus PDE2 Ki (nM) - Lab A
Write down the numeric answer in nM and omit the unit.

# GIVEN_SMILES, READOUT_KIND, UNIT_OF_MEASUREMENT, NUMERIC_READOUT
data = [
    ("O=C(NC1(c2ccc(C(F)(F)F)c(F)c2)CC1)c1cc(=O)[nH]c(N2CCCC2)n1", "Ki", "nM", 1.3),
    ("C[C@@H](NC(=O)c1cc(=O)[nH]c(N2CCCC2)n1)c1ccc(SC(F)(F)F)cc1", "Ki", "nM", 0.43),
    ("CC(C)[C@@H](NC(=O)c1cc(=O)[nH]c(N(C)C)n1)c1ccc(OC(F)(F)F)cc1", "Ki", "nM", 0.64),
    ("CNc1nc(C(=O)N[C@@H](c2ccc(OC(F)(F)F)c(F)c2)C(C)C)cc(=O)[nH]1", "Ki", "nM", 4.7),
    ("C[C@@H](NC(=O)c1cc(=O)[nH]c(N(C)C)n1)c1ccc(OC(F)(F)F)c(F)c1", "Ki", "nM", 0.69),
    ("C[C@@H](NC(=O)c1cc(=O)[nH]c(N2CCCC2)n1)c1ccc(OC(F)(F)F)cc1", "Ki", "nM", 1.3),
    ("CC(C)[C@@H](NC(=O)c1cc(=O)[nH]c(N)n1)c1ccc(OC(F)(F)F)c(F)c1", "Ki", "nM", 33),
]

Would you kindly look at the next entry?
For the molecule C[C@@H](NC(=O)c1cc(=O)[nH]c(N)n1)c1ccc(C(F)(F)F)cc1 , report Ki.
272

Origin of the recorded values: patent US10285989B2
